TESTED TARGET: HDAC1 enzyme (GST-HDAC1) (Homo sapiens, UniProt Q13547)
Sequence (Q13547 whole entry): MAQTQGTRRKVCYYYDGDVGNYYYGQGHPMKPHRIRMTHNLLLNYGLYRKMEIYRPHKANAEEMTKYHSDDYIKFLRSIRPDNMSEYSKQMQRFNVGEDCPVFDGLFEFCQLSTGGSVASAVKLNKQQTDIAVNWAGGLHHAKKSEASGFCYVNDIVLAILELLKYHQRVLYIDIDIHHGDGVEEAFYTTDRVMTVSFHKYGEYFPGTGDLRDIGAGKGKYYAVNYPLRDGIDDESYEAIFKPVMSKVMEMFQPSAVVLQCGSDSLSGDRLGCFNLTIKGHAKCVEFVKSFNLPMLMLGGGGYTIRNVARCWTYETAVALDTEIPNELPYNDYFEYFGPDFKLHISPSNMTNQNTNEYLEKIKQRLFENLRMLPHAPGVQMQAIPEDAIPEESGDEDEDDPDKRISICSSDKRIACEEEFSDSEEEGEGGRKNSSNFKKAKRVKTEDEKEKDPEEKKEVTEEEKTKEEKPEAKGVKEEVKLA
PROPERTY NAME: IC50 (nM)
Answers are plain numbers, in nM.

Some solved cases for reference:
# COMPOUND, TEST VALUE
data = [
    ("O=C(COc1ccccc1)Nc1nc(-c2ccc(C(=O)NO)s2)cs1 [Example 16]", 700),
    ("O=C(NO)c1ccc(-c2ccc(CNCCc3ccccn3)cc2)s1 [Example 27]", 200),
    ("O=C(NO)c1ccc(-c2cccc(CNCCc3ccccc3)c2)s1 [Example 29]", 87),
    ("O=C(NO)c1ccc(-c2ccc(NCc3ccccc3)cc2)s1 [Example 44]", 1420),
    ("O=C(NO)c1ccc(-c2cccc(CNCCc3ccccn3)c2)s1 [Example 30]", 220),
]

Could I get IC50 for every one of these entries?
1. O=C(NO)c1ccc(-c2ccc(CNCCc3ccccc3)cc2)s1 [Example 26]
2. O=C(Cc1ccccc1)Nc1nc(-c2cc(C(=O)NO)no2)cs1 [Example 17]

OUT:
[66, 1400]

###

For each record, write down the corresponding % cells in late apoptosis (Ramos).
System: Ramos Burkitt-lymphoma cells
TEST DESCRIPTION: Apoptosis assay (Annexin V / PI flow cytometry)
Format: cell-based, human
ASSAY CONTEXT: 48 h after treatment with 10 μM
One number for each entry, in %.

Some solved cases for reference:
# COMPOUND, % cells in late apoptosis (Ramos), %
rows = [
    ("O=C(NO)c1ccc(-c2ccc(NCc3ccccc3)cc2)s1", 82),
    ("O=C(COc1ccccc1)Nc1nc(-c2ccc(C(=O)NO)s2)cs1", 90),
    ("O=C(Cc1ccccc1)NCc1cccc(-c2ccc(C(=O)NO)cc2)c1 [reference compound]", 89),
]

Could I get % cells in late apoptosis (Ramos) for every one of these entries?
1. O=C(Cc1ccc(-c2csc(NC(=O)Cc3ccccc3)n2)s1)NO
2. O=C(Cc1ccc(-c2csc(NC(=O)c3ccc(N4CCNCC4)cc3)n2)s1)NO

OUT:
1. 76
2. 74

###

TESTED TARGET: HDAC8 enzyme (GST-HDAC8) (Homo sapiens, UniProt Q9BY41)
Construct: Amplification of human HDAC1 and HDAC8 coding region from this cDNA library; made in house; host or cells: SF9 insect cells (baculovirus, pFASTBAC vector)
Sequence (Q9BY41 1-377): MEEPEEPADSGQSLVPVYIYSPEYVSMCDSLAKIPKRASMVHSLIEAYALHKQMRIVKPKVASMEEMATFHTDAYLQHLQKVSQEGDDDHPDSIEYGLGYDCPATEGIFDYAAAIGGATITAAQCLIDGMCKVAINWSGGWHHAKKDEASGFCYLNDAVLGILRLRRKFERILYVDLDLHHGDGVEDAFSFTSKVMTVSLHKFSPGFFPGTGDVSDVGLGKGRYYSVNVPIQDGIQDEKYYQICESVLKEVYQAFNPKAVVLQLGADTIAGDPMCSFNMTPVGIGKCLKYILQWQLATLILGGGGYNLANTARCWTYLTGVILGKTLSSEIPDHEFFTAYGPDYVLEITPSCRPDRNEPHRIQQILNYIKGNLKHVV
TEST DESCRIPTION: In vitro HDAC assay for determination of IC50 values (BIOMOL fluorescent-based HDAC activity assay), HDAC8
Assay type: biochemical
ASSAY CONTEXT: 500 nM HDAC8 enzyme, 200 μM Flur de lys p53 peptide substrate, room temperature 2 h; read-out: HDAC8 Enzyme Activity, IC50
pIC50: −log10 of the molar value.
Tag: True if measured pIC50 is not below 7, False if it is.

# COMPOUND, ANSWER LABEL
rows = [
    ("Cc1nc(C2CCCNC2)sc1C(=O)Nc1nc(-c2ccc(CC(=O)NO)s2)cs1 (stereo not drawn)", "True"),
]

Now let's try a different one.
IN: Check if pIC50 >= 7 (inclusive). Item: O=C(Nc1cccc(-c2cc(C(=O)NO)n[nH]2)c1)c1ccccc1
OUT: False
